Test: Acute toxicity (LD50) in mice
Settings: mouse, in vivo, po
metric.name: LD50

Note to self: LD50 recorded for CC(=O)Cc1cc2c(c(O)c1C(=O)O)-c1cc3c(c(O)c1CC2)C(=O)c1c(O)cc(O)cc1C3=O was > 300 mg/kg
